- Assayed target: Left-right determination factor 2 (Homo sapiens)
- Protocol description: LEFTY2 binders on small-molecule microarrays, primary screen, biochemical, small-molecule microarray, 635 nm fluorescence scan (AID 1110)
- Particulars: LEFTY2 binding, higher = more signal
Outcome label depends on composite z-score relative to -0.1: at/above gives met, below gives not met.

1) C=C(C(=O)CC[C@@H](OC(=O)c1ccccc1-c1ccccc1C(=O)O)c1cccc(OCCO)c1)C(C)C
met
2) O=C(c1ccccc1)N1Cc2ccccc2C[C@@]2(N=C(c3ccc(OCCCO)cc3)O[C@H]2c2ccccc2)C1=O
met
3) Cc1ccc(S[C@]2(C(=O)NCCN3CCOCC3)CC(=O)N(C(C)C)[C@@H]2c2ccc(CO)cc2I)cc1
not met
4) COc1ccc([Si](C)(C)[C@H]2[C@H](CC(=O)N(CCO)Cc3ccccc3)O[C@@]3(C(=O)N(c4ccccc4)c4ccccc43)[C@@H]2C)cc1
met
5) CCc1cccc(NC(=O)O[C@H]2[C@H](OC(=O)Nc3ccccc3-c3ccccc3)[C@H](OC(=O)Nc3ccccc3-c3ccccc3)[C@@H](OC)O[C@@H]2CO)c1
met
6) CN1C(=O)C2C=CC(C(O)c3ccc(I)cc3)N(N(c3ccccc3)c3ccccc3)C2C1=O (stereo not drawn)
not met
7) COCCCNC(=O)[C@@]1(Cc2ccccc2I)c2ccccc2C(=O)N(C2CCCCC2)[C@H]1c1ccc(CO)cc1
not met
8) CCCCC(=C=CC[C@@H](O)c1ccccc1OCCO)C[C@@H](O)c1ccccn1
not met
